System: SK-MEL-28
procedure.text: NCI tumour cell line growth inhibition, 48 h
Calls of active or inactive are those of the source. Cut-off read from the data, not from the text of the source: active = GI50 up to about 1.1 µM and inactive = higher.
Response enum: active, inactive

Recorded call for Cc1ccc2c(n1)C(=O)c1cc(C)c(C)cc1C2=O ?
inactive

Moving on to the next molecule: CC(C)NC(=O)OCCN=C1c2ccccc2CCc2ccccc21
inactive

###

Tested on: NCI-H522
procedure.text: NCI tumour cell line growth inhibition, 48 h
Calls of active or inactive are those of the source. Rule as the data show it: active = GI50 up to about 1.1 µM and inactive = higher.
Use one of these outcomes when replying: T (active), F (inactive)

{"compound": "Nc1ccc(C2SCC(=O)N2NS(=O)(=O)c2cccc(C(=O)O)c2)cc1 (stereo unspecified)", "qualitative.label": "F"}
{"compound": "CCSC1=N/C(=C\\c2ccco2)C(NN)=N1", "qualitative.label": "F"}
{"compound": "O=C(c1ccc(Cl)c(Cl)c1)N(C(=S)OC12CC3CC(CC(C3)C1)C2)c1ccccc1", "qualitative.label": "F"}

Recorded call for COc1ccc(C2=C(N)c3ccccc3C2=O)cc1 ?
F

Next compound up: COc1ccc2c(c1)CCC1=C/C(=N\NC(N)=O)CCC12C (stereo unspecified)
F
